biological target: Dopamine beta hydroxylase (Homo sapiens, UniProt P09172); construct: 125 μl of plasma; tissue Instituto Português do Sangue Transplantação; host or cells: human plasma from healthy donors; assay: Dopamine beta hydroxylase activity in human plasma; type: biochemical; conditions: inhibitor 0.1 μM
Sequence (P09172 40-617 limits assumed): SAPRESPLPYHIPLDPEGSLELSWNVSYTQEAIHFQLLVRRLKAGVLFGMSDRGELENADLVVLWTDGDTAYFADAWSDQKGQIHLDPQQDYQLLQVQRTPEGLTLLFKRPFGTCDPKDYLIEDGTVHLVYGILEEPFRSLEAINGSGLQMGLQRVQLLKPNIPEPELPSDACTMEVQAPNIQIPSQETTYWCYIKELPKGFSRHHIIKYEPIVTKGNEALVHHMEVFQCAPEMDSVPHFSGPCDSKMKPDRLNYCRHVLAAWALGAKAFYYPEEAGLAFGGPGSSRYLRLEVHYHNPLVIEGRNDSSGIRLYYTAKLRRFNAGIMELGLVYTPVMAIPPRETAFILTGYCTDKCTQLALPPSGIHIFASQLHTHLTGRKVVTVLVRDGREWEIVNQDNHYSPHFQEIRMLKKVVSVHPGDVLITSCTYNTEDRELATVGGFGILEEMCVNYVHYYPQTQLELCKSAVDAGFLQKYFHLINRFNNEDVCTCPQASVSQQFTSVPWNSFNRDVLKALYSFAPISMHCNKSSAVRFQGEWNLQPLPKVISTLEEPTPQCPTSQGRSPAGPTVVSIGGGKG
property.name: Plasma (0.1 μM), activity in % of control

[in] Item CN(C(=O)Cc1c2n(c(=S)n1C)C[C@@]1(c3cc(Br)ccc3F)C[C@@H]21)C1CCOC1 (some centres unmarked) has what recorded Plasma (0.1 μM), activity in % of control?
[out] 8.4 % of control

[in] Query (compound): CCOC(=O)Cc1[nH]c(=S)n2c1C[C@H](c1cc(Cl)ccc1F)C2 ; field requested: Plasma (0.1 μM), activity in % of control
[out] 88.4 % of control

[in] Using the record for Cn1c(CC(=O)NC2CCOCC2)c2n(c1=S)C[C@H](c1c(F)ccc(Cl)c1F)C2 , report its Plasma (0.1 μM), activity in % of control.
[out] 4.3 % of control

[in] Which Plasma (0.1 μM), activity in % of control value is on record for Cn1c(CC(=O)N[C@H]2CCOC2)c2n(c1=S)C[C@H](c1cc(F)cc(F)c1)C2 ?
[out] 66.3 % of control

[in] Field request: Plasma (0.1 μM), activity in % of control | item: Cn1c(CC(=O)NC2COC2)c2n(c1=S)C[C@@]1(c3cc(Br)ccc3F)C[C@@H]21
[out] 6.1 % of control

[in] Param item = Cn1c(CC(=O)Nc2ncco2)c2n(c1=S)C[C@@H](c1c(F)c(F)cc(F)c1F)C2 ; retrieve measured Plasma (0.1 μM), activity in % of control.
[out] 4.5 % of control

[in] What value of Plasma (0.1 μM), activity in % of control has been recorded for this entry: CN(C(=O)Cc1c2n(c(=S)n1C)C[C@@]1(c3cc(Cl)ccc3F)C[C@@H]21)[C@@H]1CCOC1
[out] 13.1 % of control

[in] If you can, please state the reported Plasma (0.1 μM), activity in % of control value of O=C(Cc1[nH]c(=S)n2c1[C@@H]1C[C@]1(c1cc(Br)ccc1F)C2)NC1CC1 .
[out] 38.6 % of control

====

Give measured Plasma (0.1 μM), activity in % of control for each item. Keep answers brief.
target: Dopamine beta hydroxylase (Homo sapiens); construct: 125 μl of plasma; tissue Instituto Português do Sangue Transplantação; host or cells: human plasma from healthy donors; experiment: Dopamine beta hydroxylase activity in human plasma; type: biochemical; conditions: inhibitor 0.1 μM
Counter-ions that a name gives are not always drawn.

[in] Entry under review: O=C(Cc1[nH]c(=S)n2c1C[C@@H](c1c(F)ccc(Br)c1F)C2)N[C@@H]1CCCOC1 . Reported Plasma (0.1 μM), activity in % of control?
[out] 20.9 % of control

[in] Quick check: Plasma (0.1 μM), activity in % of control of O=C(Cc1[nH]c(=S)n2c1C[C@@H](c1c(F)ccc(Br)c1F)C2)N1CCOCC1 ?
[out] 26.8 % of control

[in] Recorded Plasma (0.1 μM), activity in % of control of O=C(Cc1[nH]c(=S)n2c1C[C@@H](c1c(F)ccc(Br)c1F)C2)N1CCC[C@H]1CO , please.
[out] 26.2 % of control

[in] Plasma (0.1 μM), activity in % of control for O=C(Cc1[nH]c(=S)n2c1[C@@H]1C[C@]1(c1cc(Br)ccc1F)C2)N[C@@H]1CCOC1 ?
[out] 33.0 % of control

[in] Report Plasma (0.1 μM), activity in % of control for Cn1c(CC(=O)N2CCOCC2)c2n(c1=S)C[C@@H](c1c(F)cccc1F)C2 please.
[out] 73.7 % of control

[in] Fill blank: measured Plasma (0.1 μM), activity in % of control of the molecule CN1CC(NC(=O)Cc2c3n(c(=S)n2C)C[C@@H](c2c(F)ccc(F)c2F)C3)CCC1=O (stereo partly shown) is ____.
[out] 17.7 % of control

[in] Request the reported Plasma (0.1 μM), activity in % of control associated with Cn1c(C2(C(=O)NCCS(C)(=O)=O)CC2)c2n(c1=S)C[C@H](c1c(F)ccc(Br)c1F)C2
[out] 88.5 % of control

[in] Fill in the blank: the reported Plasma (0.1 μM), activity in % of control of Fc1cc(F)c(F)c([C@H]2Cc3c(CCc4ccccn4)[nH]c(=S)n3C2)c1F is ____.
[out] 66.6 % of control

[in] Value lookup for Plasma (0.1 μM), activity in % of control; key = CCOC(=O)Cc1[nH]c(=S)n2c1C[C@H](c1cc(F)ccc1F)C2
[out] 99.1 % of control

[in] Which value of Plasma (0.1 μM), activity in % of control has been reported for Cn1c(CC(=O)N2CCC[C@H]2CF)c2n(c1=S)C[C@@H](c1c(F)ccc(F)c1F)C2 in the records?
[out] 74.5 % of control

[in] Record request: Plasma (0.1 μM), activity in % of control value, item O=C(Cc1[nH]c(=S)n2c1C[C@H](c1c(F)ccc(Br)c1F)C2)N1CCCC(O)C1 (stereo partly shown)
[out] 62.6 % of control

[in] Bench note: what Plasma (0.1 μM), activity in % of control did Cn1c(CCC(=O)O)c2n(c1=S)C[C@@H](c1c(F)c(F)cc(F)c1F)C2 show?
[out] 26.5 % of control

[in] Would you mind telling me what Plasma (0.1 μM), activity in % of control value was observed for O=C(Cc1[nH]c(=S)n2c1C[C@@H](c1c(F)ccc(Cl)c1F)C2)N1CCOCC1 ?
[out] 20.8 % of control

[in] Reported Plasma (0.1 μM), activity in % of control, molecule Cl.Fc1cc(F)c(F)c([C@H]2Cc3c(CCN4CCOCC4)[nH]c(=S)n3C2)c1F : ____
[out] 0.6 % of control

[in] Name the reported Plasma (0.1 μM), activity in % of control value associated with the molecule Cn1c(CC(=O)NCC2CCCO2)c2n(c1=S)C[C@@H](c1c(F)c(F)cc(F)c1F)C2 (stereo in doubt) [Example 391]
[out] 40.7 % of control

[in] Need Plasma (0.1 μM), activity in % of control, item O=C(O)Cc1[nH]c(=S)n2c1[C@@H]1C[C@]1(c1cc(F)cc(Cl)c1)C2
[out] 26.2 % of control

[in] So what's the measured Plasma (0.1 μM), activity in % of control for this one? Fc1cc(F)c(F)c([C@H]2Cc3c(CCCN4CCCC4)[nH]c(=S)n3C2)c1F [Example 219, hydrochloride]
[out] 19.7 % of control

[in] Fill blank: measured Plasma (0.1 μM), activity in % of control of the molecule O=C(Cc1[nH]c(=S)n2c1C[C@@H](c1c(F)ccc(Br)c1F)C2)N1CCCC1 is ____.
[out] 37.2 % of control

[in] # input molecule: Cn1c(CC(=O)Nc2cnoc2)c2n(c1=S)C[C@@H](c1c(F)ccc(F)c1F)C2 ; wanted: its Plasma (0.1 μM), activity in % of control
[out] 17.7 % of control

[in] Field request: Plasma (0.1 μM), activity in % of control | item: F.Fc1ccc(Cl)cc1[C@]12C[C@H]1c1c(CCN3CCCCC3)[nH]c(=S)n1C2
[out] 62.4 % of control

[in] Which Plasma (0.1 μM), activity in % of control value is on record for O=C(Cc1[nH]c(=S)n2c1C[C@H](c1c(F)ccc(Br)c1F)C2)NCc1ccccn1 ?
[out] 20.8 % of control

[in] Name the recorded Plasma (0.1 μM), activity in % of control for O=C(Cc1[nH]c(=S)n2c1C[C@H](c1c(F)cccc1F)C2)N[C@@H]1CCOC1 .
[out] 87.2 % of control

[in] Plasma (0.1 μM), activity in % of control lookup needed for N#CCNC(=O)Cc1[nH]c(=S)n2c1C[C@H](c1c(F)ccc(Br)c1F)C2 , thanks.
[out] 50.9 % of control

[in] Could you tell me which Plasma (0.1 μM), activity in % of control is on file for Cn1c(CC(=O)N[C@@H]2CCOC2)c2n(c1=S)C[C@H](c1c(F)ccc(Br)c1F)C2 ?
[out] 6.4 % of control

[in] Return reported Plasma (0.1 μM), activity in % of control; argument: CC(C)NCCCc1[nH]c(=S)n2c1C[C@H](c1c(F)ccc(F)c1F)C2
[out] 14.2 % of control

[in] Using the record for Cl.Fc1ccc(Cl)cc1[C@]12C[C@H]1c1c(CCN3CCOCC3)[nH]c(=S)n1C2 , report its Plasma (0.1 μM), activity in % of control.
[out] 52.7 % of control

[in] Recorded Plasma (0.1 μM), activity in % of control of CN(C(=O)Cc1[nH]c(=S)n2c1C[C@H](c1c(F)ccc(Br)c1F)C2)C1CCOCC1 , please.
[out] 29.7 % of control

[in] Given the molecule Cn1c(CC(=O)N[C@@H]2CCCNC2=O)c2n(c1=S)C[C@@H](c1c(F)ccc(F)c1F)C2 , what is its reported Plasma (0.1 μM), activity in % of control?
[out] 53.4 % of control

[in] // Plasma (0.1 μM), activity in % of control lookup, key: Cl.Fc1ccc(Br)cc1[C@]12C[C@H]1c1c(CCNCC3CC3)[nH]c(=S)n1C2
[out] 18.0 % of control

[in] What value of Plasma (0.1 μM), activity in % of control has been reported for the following molecule? Cl.Cn1c(CCNCC2CCOCC2)c2n(c1=S)C[C@@H](c1c(F)ccc(F)c1F)C2
[out] 59.4 % of control

[in] Which Plasma (0.1 μM), activity in % of control value belongs to Cl.Cn1c(CC(=O)N2CCNCC2)c2n(c1=S)C[C@@]1(c3cc(Br)ccc3F)C[C@@H]21 ?
[out] 13.3 % of control
